Collected MOR agonist activity, percent [35S]GTPγS binding at the stated compound concentration values appear next to each entry.
Tested on: mu opiate receptor (MOR)
Experiment: MOR agonist activity using [35S]GTPγS binding assay in striatal membranes
Format: biochemical
Settings: Series B; 1 μM compound; [35S]GTPγS binding to Gαo, striatal membranes
value type: MOR agonist activity, percent [35S]GTPγS binding at the stated compound concentration (%)

>  <compound>
COc1c2c(cc3c1C(CC(=O)CCc1ccc(F)cc1)[N+](C)(C)CC3)OCO2 (centres unmarked) [Compound B0018]

>  <readout unit>
%

>  <recorded number>
143.0

$$$$
>  <compound>
COc1c2c(cc3c1C(CC(=O)CCc1ccc(Cl)cc1)[N+](C)(C)CC3)OCO2 (centres unmarked) [Compound B0017]

>  <readout unit>
%

>  <recorded number>
122.0

$$$$
>  <compound>
COc1c2c(cc3c1C(CC(=O)Cc1ccc(C#N)cc1)[N+](C)(C)CC3)OCO2 (centres unmarked) [Compound B0012]

>  <readout unit>
%

>  <recorded number>
212.0

$$$$
>  <compound>
COc1ccccc1CC(O)CC1c2c(cc3c(c2OC)OCO3)CC[N+]1(C)C (centres unmarked) [Compound B0032]

>  <readout unit>
%

>  <recorded number>
297.7

$$$$
>  <compound>
COc1ccccc1CC(=O)CC1c2c(cc3c(c2OC)OCO3)CC[N+]1(C)C (centres unmarked) [Compound 5009]

>  <readout unit>
%

>  <recorded number>
270.4

$$$$
>  <compound>
COc1ccc(CC(=O)CC2c3c(cc4c(c3OC)OCO4)CC[N+]2(C)C)c(OC)c1 (centres unmarked) [Compound B0029]

>  <readout unit>
%

>  <recorded number>
210.3

$$$$
>  <compound>
COc1c2c(cc3c1C(CC(=O)c1cccc(C(F)(F)F)c1)[N+](C)(C)CC3)OCO2 (centres unmarked) [Compound B0006]

>  <readout unit>
%

>  <recorded number>
131.3

$$$$
>  <compound>
COc1ccccc1CCC(=O)CC1c2c(cc3c(c2OC)OCO3)CC[N+]1(C)C (centres unmarked) [Compound B0045]

>  <readout unit>
%

>  <recorded number>
193.1

$$$$
